- ASSAYED_SYSTEM: human H-PGDS (Homo sapiens, UniProt O60760)
- Construct: Full length human H-PGDS cDNA (Invitrogen Ultimate ORF IOH13026) was amplified by PCR; 6-His (N); TEV protease cleavage site (N); made in house; host or cells: E. coli BL21 (DE3*) for H-PGDS; Sf9 insect cells (baculovirus) for COX-2
- Sequence (O60760 whole entry): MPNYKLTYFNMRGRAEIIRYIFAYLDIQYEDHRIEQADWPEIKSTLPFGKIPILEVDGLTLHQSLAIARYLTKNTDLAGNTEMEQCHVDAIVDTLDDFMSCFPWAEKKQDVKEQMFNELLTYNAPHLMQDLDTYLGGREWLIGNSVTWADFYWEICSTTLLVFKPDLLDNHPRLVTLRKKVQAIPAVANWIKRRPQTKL
- METHOD_NOTES: H-PGDS RapidFire high throughput mass spectrometry assay
- Type: biochemical
- CONDITIONS_USED: inhibition of conversion of PGH2 to PGD2 by H-PGDS; mean pIC50; read-out: Potency Range (mean pIC50) (converted)
MEASURED_METRIC: IC50

Look over these answered cases.
-- ask Entry CC1(C)CNC(=O)[C@H]1NC(=O)c1cnc(-c2cc(F)cc(Cl)c2)s1 [Example 19] , system human H-PGDS (Homo sapiens, UniProt O60760): what IC50 was measured?
-- reply 10.2 to 100 nM

-- ask Entry CN(C(=O)c1cnc(-c2cc(F)cc(Cl)c2)s1)C1CCNC1=O (racemic) [Example 65] , system human H-PGDS (Homo sapiens, UniProt O60760): what IC50 was measured?
-- reply 1020 to 10000 nM

-- ask Entry O=C(N[C@H]1CCNC1=O)c1cnc(-c2cccc(Cl)c2)s1 [Example 3] , system human H-PGDS (Homo sapiens, UniProt O60760): what IC50 was measured?
-- reply 10.2 to 100 nM

New cases:
-- ask Entry C[C@H]1[C@H](C)NC(=O)[C@@H]1NC(=O)c1cnc(-c2cc(F)cc(Cl)c2)s1 (racemic) [Example 34] , system human H-PGDS (Homo sapiens, UniProt O60760): what IC50 was measured?
-- reply 10.2 to 100 nM

-- ask Entry O=C(N[C@H]1CCNC1=O)c1cnc(-c2cccc(Br)c2)s1 [Example 37] , system human H-PGDS (Homo sapiens, UniProt O60760): what IC50 was measured?
-- reply 10.2 to 100 nM

-- ask Entry O=C(N[C@H]1CCNC1=O)c1cnc(-c2cccc3ccoc23)s1 [Example 1] , system human H-PGDS (Homo sapiens, UniProt O60760): what IC50 was measured?
-- reply 10.2 to 100 nM

-- ask Entry O=C(N[C@H]1C(=O)N[C@@H]2COC[C@@H]21)c1cnc(-c2cc(F)cc(Cl)c2)s1 [Example 54] , system human H-PGDS (Homo sapiens, UniProt O60760): what IC50 was measured?
-- reply 10.2 to 100 nM

-- ask Entry O=C(N[C@@H]1C(=O)N[C@H]2COC[C@H]21)c1cnc(-c2cc(F)cc(Cl)c2)s1 (racemic) [Example 52] , system human H-PGDS (Homo sapiens, UniProt O60760): what IC50 was measured?
-- reply 10.2 to 100 nM

-- ask Entry C[C@H]1C[C@H](NC(=O)c2cnc(-c3cc(F)cc(Cl)c3)s2)C(=O)N1 [Example 81] , system human H-PGDS (Homo sapiens, UniProt O60760): what IC50 was measured?
-- reply 1.02 to 10 nM

-- ask Entry O=C(N[C@H]1CCNC1=O)c1cnc(-c2cccc(C(F)(F)F)c2)s1 [Example 4] , system human H-PGDS (Homo sapiens, UniProt O60760): what IC50 was measured?
-- reply 10.2 to 100 nM

-- ask Entry O=C(N[C@H]1CCNC1=O)c1cnc(-c2cccc(C(F)F)c2)s1 [Example 10] , system human H-PGDS (Homo sapiens, UniProt O60760): what IC50 was measured?
-- reply 10.2 to 100 nM

-- ask Entry C[C@@H]1CNC(=O)[C@H]1NC(=O)c1cnc(-c2cc(F)cc(Cl)c2)s1 [Example 11] , system human H-PGDS (Homo sapiens, UniProt O60760): what IC50 was measured?
-- reply 1.02 to 10 nM

-- ask Entry Cc1cc(-c2ncc(C(=O)N[C@H]3CCNC3=O)s2)cc(C(F)F)c1 [Example 48] , system human H-PGDS (Homo sapiens, UniProt O60760): what IC50 was measured?
-- reply 10.2 to 100 nM

-- ask Entry O=C(N[C@H]1CCNC1=O)c1cnc(-c2ccccc2)s1 [Example 33] , system human H-PGDS (Homo sapiens, UniProt O60760): what IC50 was measured?
-- reply 10.2 to 100 nM

-- ask Entry O=C(N[C@H]1CC2(CCC2)NC1=O)c1cnc(-c2cc(F)cc(Cl)c2)s1 [Example 29] , system human H-PGDS (Homo sapiens, UniProt O60760): what IC50 was measured?
-- reply 1.02 to 10 nM

-- ask Entry Cc1cnn(-c2ncc(C(=O)N[C@H]3CCNC3=O)s2)c1 [Example 31] , system human H-PGDS (Homo sapiens, UniProt O60760): what IC50 was measured?
-- reply 1020 to 10000 nM

-- ask Entry O=C(N[C@@H]1C(=O)N[C@H]2CCC[C@H]21)c1cnc(-c2cc(F)cc(Cl)c2)s1 [Example 51] , system human H-PGDS (Homo sapiens, UniProt O60760): what IC50 was measured?
-- reply 1.02 to 10 nM

These measurements were taken from patent US20220009918A1.
